// Ki collected for UniProt:Q9QYN8
Sequence (Q9QYN8 whole entry): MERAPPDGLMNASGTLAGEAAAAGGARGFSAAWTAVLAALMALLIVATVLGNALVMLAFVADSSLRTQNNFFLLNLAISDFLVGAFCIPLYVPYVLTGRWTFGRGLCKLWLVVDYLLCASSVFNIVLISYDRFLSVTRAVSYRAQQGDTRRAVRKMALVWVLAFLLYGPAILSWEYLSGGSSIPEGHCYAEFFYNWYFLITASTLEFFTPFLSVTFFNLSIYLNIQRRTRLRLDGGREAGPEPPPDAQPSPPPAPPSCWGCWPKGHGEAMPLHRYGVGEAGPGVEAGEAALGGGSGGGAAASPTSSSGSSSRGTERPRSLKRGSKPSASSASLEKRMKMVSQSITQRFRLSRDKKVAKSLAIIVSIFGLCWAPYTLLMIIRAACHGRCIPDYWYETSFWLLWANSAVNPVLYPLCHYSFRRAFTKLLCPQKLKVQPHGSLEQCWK
experimental-readout: Ki (µM)

• CC(C)CNC(=O)[C@H]1C[C@@](F)(c2ccc(CN3CCCC3)c(F)c2)C1 = 0.019
• CN(C)Cc1ccc(-c2ccc(CN(C)C)cc2)cc1 = 0.0093
• CCNC(=O)[C@H]1C[C@@](F)(c2ccc(CN3CCCC3)c(F)c2)C1 = 0.037
• c1cnc(OC[C@H]2C[C@H](c3ccc(CN4CCCC4)cc3)C2)nc1 = 0.082
• CC(=O)N(C)C[C@H]1C[C@H](c2ccc(CN3CCCC3)c(Cl)c2)C1 = 0.16
• c1cc([C@H]2C[C@@H](CN3CCOCC3)C2)ccc1CN1CCCC1 = 0.0077

* * *

test system: Liver microsomes; conditions: human
Description: Unbound intrinsic clearance in human liver microsomes
Quick reference: CL free of the listed items.
experimental-readout: CL free

• CN(C)Cc1ccc(-c2ccc(CN(C)C)cc2)cc1 = 219 mL/min/kg
• c1cc([C@H]2C[C@@H](CN3CCOCC3)C2)ccc1CN1CCCC1 = < 8 mL/min/kg
• CC(=O)N(C)C[C@H]1C[C@H](c2ccc(CN3CCCC3)c(Cl)c2)C1 = < 8 mL/min/kg
• c1cnc(OC[C@H]2C[C@H](c3ccc(CN4CCCC4)cc3)C2)nc1 = < 8 mL/min/kg
• CC(C)CNC(=O)[C@H]1C[C@@](F)(c2ccc(CN3CCCC3)c(F)c2)C1 = < 5 mL/min/kg
• CCNC(=O)[C@H]1C[C@@](F)(c2ccc(CN3CCCC3)c(F)c2)C1 = < 5 mL/min/kg

* * *

test: in vivo; conditions: beagle, dog, po
Description: Cmax in po dosed beagle dog administered for 7 days
Recorded Cmax at 168 h, one value per entry.
experimental-readout: Cmax at 168 h (µM)

* c1cc([C@H]2C[C@@H](CN3CCOCC3)C2)ccc1CN1CCCC1 | 0.148
* CCNC(=O)[C@H]1C[C@@](F)(c2ccc(CN3CCCC3)c(F)c2)C1 | 13
* CC(=O)N(C)C[C@H]1C[C@H](c2ccc(CN3CCCC3)c(Cl)c2)C1 | 5.13
* CC(C)CNC(=O)[C@H]1C[C@@](F)(c2ccc(CN3CCCC3)c(F)c2)C1 | 18

* * *

assay: in vitro; details: rat, plasma
Description: Fraction unbound in rat plasma
experimental-readout: fraction unbound

- CCNC(=O)[C@H]1C[C@@](F)(c2ccc(CN3CCCC3)c(F)c2)C1 [PF-03654746]: 0.7
- CC(C)CNC(=O)[C@H]1C[C@@](F)(c2ccc(CN3CCCC3)c(F)c2)C1 [PF-03654764]: 0.56
- c1cnc(OC[C@H]2C[C@H](c3ccc(CN4CCCC4)cc3)C2)nc1: 0.47
- c1cc([C@H]2C[C@@H](CN3CCOCC3)C2)ccc1CN1CCCC1: 0.72

* * *

experiment: AUC in Sprague-Dawley rat at >[…] mg/kg, po administered for 14 days measured on day 1; assay type: ADME, organism-based; details: plasma, 50 mg/kg
experimental-readout: AUC at 336 h (ng·h/mL)

• c1cnc(OC[C@H]2C[C@H](c3ccc(CN4CCCC4)cc3)C2)nc1 = 21300

* * *

Listing: AUC at 24 h of selected molecules
assay: in vivo; conditions: beagle, dog, plasma, po
Description: AUC (0 to 24 hrs) in po dosed beagle dog administered for 7 days
experimental-readout: AUC at 24 h

* c1cc([C@H]2C[C@@H](CN3CCOCC3)C2)ccc1CN1CCCC1 | 740 ng·h/mL
* CC(=O)N(C)C[C@H]1C[C@H](c2ccc(CN3CCCC3)c(Cl)c2)C1 | 2910 ng·h/mL
* CCNC(=O)[C@H]1C[C@@](F)(c2ccc(CN3CCCC3)c(F)c2)C1 | 18900 ng·h/mL
* CC(C)CNC(=O)[C@H]1C[C@@](F)(c2ccc(CN3CCCC3)c(F)c2)C1 | 18200 ng·h/mL
